target: Histone deacetylase; test: Inhibition of HDAC from human HeLa cells; type: cell-based; details: read-out: IC50
property-label: IC50 (nM)
Numbers only; they are read as nM.

Query: Query (molecule): COc1ccc(-c2nc3ccccc3o2)cc1NC(=O)NCCCCCC(=O)NO ; field requested: IC50
Result: 12

Query: Item: COc1ccc(-c2nc3cc(Cl)cc(Cl)c3o2)cc1NC(=O)NCCCCCC(=O)NO
Result: 128

Query: Entry to check: CN(c1ccccc1)S(=O)(=O)c1cccc(/C=C/C(=O)NO)c1
Result: 476

Query: Same read-out for O=C(/C=C/c1cccc(NS(=O)(=O)c2ccccc2)c1)NO ?
Result: 188

Query: Next molecule: Cc1ccc(S(=O)(=O)Nc2cccc(/C=C/C(=O)NO)c2)cc1
Result: 123

Query: Then COc1ccc(-c2nc3cc(-c4ccccc4)ccc3o2)cc1NC(=O)NCCCCCC(=O)NO ?
Result: 400

Query: What would you report for COc1ccc(-c2nc3cc(Cl)ccc3o2)cc1NC(=O)NCCCCCC(=O)NO ?
Result: 146

Query: What do we get for COc1ccc2oc(-c3cccc(NC(=O)NCCCCCC(=O)NO)c3)nc2c1 ?
Result: 12

Query: Try the molecule CC(=O)SCCCCCCC(=O)Nc1ccccc1
Result: 7100

Query: Would you mind doing O=C(/C=C/c1ccc(NS(=O)(=O)c2ccc(-c3ccccc3)cc2)cc1)NO as well?
Result: 30

----------
test system: A549; assay: cells; conditions: Homo sapiens
Description: Antiproliferative activity against human A549 cells
# note: boundary value 2 µM maps to not met; IC50 below it maps to met

Query: Record CC(/C=C/C(=O)NO)=C\[C@@H](C)C(=O)c1ccc(N(C)C)cc1 : is its IC50 strictly below 2 µM?
Result: met

Query: Do the same for CN(C)c1ccc(C(=O)NCc2ccc(/C=C/C(=O)NO)cc2)cc1 please
Result: met

Query: Nc1ccccc1NC(=O)c1ccc(CN(CCO)Cc2ccc(F)c(F)c2)cc1 ?
Result: not met

Query: Check Nc1ccccc1NC(=O)c1ccc(CN(CCO)Cc2ccc3c(c2)OCO3)cc1 too.
Result: not met

Query: Do the same for O=C(/C=C/c1ccc(CNC(=O)c2ccc(N3CCCC3)cc2)cc1)NO please
Result: met

Query: Ok, now Nc1ccccc1NC(=O)c1ccc(CN(CCO)Cc2ccccc2)cc1
Result: not met

Query: Try the compound O=C(/C=C/c1ccc(CNC(=O)c2cccnc2)cc1)NO
Result: not met

Query: And for Cn1cc(CN(CCO)Cc2ccc(C(=O)Nc3ccccc3N)cc2)c2ccccc21 ?
Result: not met

Query: Could you do the same for COc1ccc(CN(CCO)Cc2ccc(C(=O)Nc3ccccc3N)cc2)cc1 , please?
Result: not met

Query: Queued: Nc1ccccc1NC(=O)c1ccc(CNC(=O)OCc2cccnc2)cc1
Result: not met

Query: Follow-up entry: O=C(/C=C/c1ccc(CNC(=O)c2ccccn2)cc1)NO
Result: not met

----------
target: Histone deacetylase 1 (Homo sapiens, UniProt Q13547); assay: Inhibition of HDAC1 from human HeLa cells; type: cell-based
Sequence (Q13547 whole entry): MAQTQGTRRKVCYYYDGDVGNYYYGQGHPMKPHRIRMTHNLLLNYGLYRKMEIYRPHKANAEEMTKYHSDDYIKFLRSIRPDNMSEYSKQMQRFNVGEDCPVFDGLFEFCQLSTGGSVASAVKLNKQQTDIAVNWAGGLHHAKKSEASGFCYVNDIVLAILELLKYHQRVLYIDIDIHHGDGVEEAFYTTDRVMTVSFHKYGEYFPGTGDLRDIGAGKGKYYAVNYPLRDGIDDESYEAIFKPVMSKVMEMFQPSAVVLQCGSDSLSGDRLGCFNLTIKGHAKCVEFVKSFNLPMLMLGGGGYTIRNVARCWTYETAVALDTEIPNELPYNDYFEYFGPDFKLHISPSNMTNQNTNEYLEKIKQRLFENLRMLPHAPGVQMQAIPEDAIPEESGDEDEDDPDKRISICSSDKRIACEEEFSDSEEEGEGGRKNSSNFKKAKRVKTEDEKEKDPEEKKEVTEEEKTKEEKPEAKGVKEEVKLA
property-label: IC50

Query: Quick one: IC50 of CC(=O)CCCCC[C@H](NC(=O)C1CCCN(C)C1)C(=O)NCCc1c(-c2ccccc2)[nH]c2ccccc12 (stereo not given in full) ?
Result: 2 µM

Query: Same question, CC(=O)CCCCC[C@H](Nc1cncs1)C(=O)Nc1cccc(-c2ccccc2)c1 this time
Result: 0.72 µM

Query: Now consider CC(=O)CCCCC[C@H](NC1CCCCN1C)C(=O)Nc1nc(-c2ccccc2)cs1 (stereo not given in full) .
Result: 0.43 µM

Query: Quick one: CC(=O)CCCCC[C@H](NC(=O)c1cncs1)C(=O)NCCc1c(-c2ccccc2)[nH]c2ccccc12
Result: 3 µM

Query: Same for COc1ccc2[nH]c(C)c(CN[C@@H](CCCCCC(C)=O)C(=O)Nc3nc(-c4ccccc4)cs3)c2c1
Result: < 0.39 µM
